Listed here: items and their measured selectivity ratio.
assay: Selectivity index, ratio of CC50 for african green monkey Vero 76 cells to EC50 for Coxsackievirus B5; assay type: toxicity, cell-based; conditions: read-out: Ratio CC50/EC50
readout_kind: selectivity ratio

{"substance_smiles": "FC(F)(F)c1ccc2c(c1)nc(Cc1ccccc1)n2C[C@@H]1CCCN2CCCC[C@H]12", "readout_value": "> 10"}
{"substance_smiles": "FC(F)(F)c1ccc2c(c1)nc(Cc1ccccc1)n2C[C@H]1CCCN2CCCC[C@H]12", "readout_value": 1.24}
{"substance_smiles": "Clc1ccc(Cc2nc3cc(Cl)c(Cl)cc3n2C[C@@H]2CCCN3CCCC[C@H]23)cc1", "readout_value": "> 3.57"}
{"substance_smiles": "c1ccc2[nH]c(SC[C@@H]3CCCN4CCCC[C@H]34)nc2c1", "readout_value": "> 2.08"}
{"substance_smiles": "CCCCn1c(Cc2ccc(Cl)c(Cl)c2)nc2cc(C(F)(F)F)ccc21", "readout_value": "> 8.33"}
{"substance_smiles": "Clc1ccc(Cc2nc3cc(Cl)c(Cl)cc3n2C[C@@H]2CCCN3CCCC[C@H]23)cc1Cl", "readout_value": "> 11.1"}
{"substance_smiles": "CCN(CC)CCCn1c(Cc2ccc(Cl)c(Cl)c2)nc2cc(C(F)(F)F)ccc21", "readout_value": "> 5.88"}
{"substance_smiles": "c1ccc2[nH]c(CC3CCCC3)nc2c1", "readout_value": "> 4.76"}
{"substance_smiles": "FC(F)(F)c1ccc2c(c1)nc(Cc1ccc(Br)cc1)n2C[C@@H]1CCCN2CCCC[C@H]12", "readout_value": "> 1"}
{"substance_smiles": "COCCn1c(Cc2ccc(Cl)c(Cl)c2)nc2cc(C(F)(F)F)ccc21", "readout_value": "> 8.33"}
{"substance_smiles": "CCC/C=C(\\CC)c1nc2ccccc2[nH]1", "readout_value": "> 1.11"}
{"substance_smiles": "Cc1nc2cc(C(F)(F)F)ccc2n1C[C@@H]1CCCN2CCCC[C@H]12", "readout_value": "> 2.13"}
{"substance_smiles": "Nc1ccc(Cc2nc3ccccc3[nH]2)cc1", "readout_value": "> 5.88"}
{"substance_smiles": "Cc1ccc2nc(-c3ccc(F)cc3)n([C@H]3CCCN4CCCC[C@H]34)c2c1", "readout_value": "> 1.25"}
{"substance_smiles": "c1ccc(-c2nc3ccccc3n2[C@H]2CCCN3CCCC[C@H]23)cc1", "readout_value": "> 1.25"}
{"substance_smiles": "c1ccc(-n2c(C[C@@H]3CCCN4CCCC[C@H]34)nc3ccccc32)cc1", "readout_value": "> 2.04"}
{"substance_smiles": "FC(F)(F)c1ccc2c(c1)nc(C(F)(F)F)n2C[C@@H]1CCCN2CCCC[C@H]12", "readout_value": 8.18}
{"substance_smiles": "FC(F)(F)c1ccc2c(c1)nc(-c1ccc(Cl)cc1)n2C[C@@H]1CCCN2CCCC[C@H]12", "readout_value": 1.71}

----------
test: Cytotoxicity against mock-infected human MT4 cells after 96 hrs by MTT assay; assay type: cell-based
readout_kind: CC50 at 96 h

{"compound": "c1ccc2[nH]c(CCCC3NCC4CNCC3C4)nc2c1 (stereo not drawn)", "readout_kind": "CC50 at 96 h", "readout_value": "> 100 µM"}
{"compound": "Nc1ccc(Cc2nc3ccccc3[nH]2)cc1", "readout_kind": "CC50 at 96 h", "readout_value": "> 100 µM"}
{"compound": "COc1ccc(-c2nc3cc(Cl)ccc3n2[C@H]2CCCN3CCCC[C@H]23)cc1", "readout_kind": "CC50 at 96 h", "readout_value": "> 100 µM"}
